# Test system: MV4-11
# assay-protocol: CellTox Green cytotoxicity fluorescence relative to DMSO vehicle (fold of vehicle RFU); higher = more cell death (loss of membrane integrity), active = 2 or more
# assay-setup: 0.1 µM; 48 h
property-label: CellTox Green cytotoxicity fluorescence

Exercise: Quick one: CellTox Green cytotoxicity fluorescence for CC1(C)CC[C@]2(NC(=O)C(C)(F)F)CC[C@]3(C)[C@H](C(=O)C=C4[C@@]5(C)C=C(C#N)C(=O)C(C)(C)[C@@H]5CC[C@]43C)[C@@H]2C1 [Omaveloxolone] ?
Solution: 0.997 (inactive)

Exercise: // lookup CellTox Green cytotoxicity fluorescence for CCN(CC)CCNC(=O)c1c(C)[nH]c(/C=C2\C(=O)Nc3ccc(F)cc32)c1C [Sunitinib]
Solution: 1.42 (inactive)

Exercise: Looking for the measured CellTox Green cytotoxicity fluorescence of CNC(=O)c1ccc(Nc2ncc(C(F)(F)F)c(NCc3nccnc3N(C)S(C)(=O)=O)n2)cc1 [Defactinib] , can you help?
Solution: 0.991 (inactive)

Exercise: Could you tell me which CellTox Green cytotoxicity fluorescence is on file for Nc1nc(F)nc2c1ncn2[C@@H]1O[C@H](CO)[C@@H](O)[C@@H]1O [Fludarabine] ?
Solution: 0.985 (inactive)

---

# Test system: CMK
# assay-protocol: CellTox Green cytotoxicity fluorescence relative to DMSO vehicle (fold of vehicle RFU); higher = more cell death (loss of membrane integrity), active = 2 or more
# assay-setup: 0.1 µM; 72 h
property-label: CellTox Green cytotoxicity fluorescence
Reply briefly: the number, and no unit.

See these solved cases before continuing.
Exercise: Tell me the measured CellTox Green cytotoxicity fluorescence of `COc1cc(C(=O)N2CCC(N3CCN(C)CC3)CC2)ccc1Nc1ncc2c(n1)N(C)c1ccccc1C(=O)N2C` , please.
Solution: 0.941

Exercise: Quick check: CellTox Green cytotoxicity fluorescence of NS(=O)(=O)C#Cc1ccccc1 [Pifithrin-m] ?
Solution: 0.998

Exercise: Data request, read-out CellTox Green cytotoxicity fluorescence, for CC[C@H](NC(=O)[C@H](C)NC)C(=O)N1C[C@@H](O)C[C@H]1Cc1c(-c2[nH]c3cc(F)ccc3c2C[C@@H]2C[C@H](O)CN2C(=O)[C@H](CC)NC(=O)[C@H](C)NC)[nH]c2cc(F)ccc12 [Birinapant]
Solution: 1

Exercise: Fill in: CellTox Green cytotoxicity fluorescence of `CCCCNc1ncc2c(-c3ccc(CN4CCN(C)CC4)cc3)cn([C@H]3CC[C@H](O)CC3)c2n1` is ___
Solution: 1.32

Continuing:
Exercise: Which CellTox Green cytotoxicity fluorescence value is on record for COc1cc(C(=O)O)ccc1NC(=O)[C@@H]1N[C@@H](CC(C)(C)C)[C@](C#N)(c2ccc(Cl)cc2F)[C@H]1c1cccc(Cl)c1F [Idasanutlin] ?
Solution: 1.01

Exercise: I would be grateful if you could share the reported CellTox Green cytotoxicity fluorescence for CCCCC(C=O)NC(=O)C(CC(C)C)NC(=O)C(CC(C)C)NC(C)=O (configuration not stated) .
Solution: 1.01

Exercise: Which value of CellTox Green cytotoxicity fluorescence has been reported for `CN[C@@H](C)C(=O)N[C@H](C(=O)N1CCC[C@H]1C(=O)Nc1snnc1-c1ccccc1)C1CCCCC1` in the records?
Solution: 1.02

---

# Tested on: MV4-11
# assay-protocol: CellTox Green cytotoxicity fluorescence relative to DMSO vehicle (fold of vehicle RFU); higher = more cell death (loss of membrane integrity), active = 2 or more
# assay-setup: 0.01 µM; 48 h
Respond with T for CellTox Green cytotoxicity fluorescence values of 1 and above, F for values below.

Exercise: Entry `CCCCNc1ncc2c(-c3ccc(CN4CCN(C)CC4)cc3)cn([C@H]3CC[C@H](O)CC3)c2n1` : is its CellTox Green cytotoxicity fluorescence no less than 1?
Solution: T

Exercise: Check if CellTox Green cytotoxicity fluorescence >= 1 (inclusive). Item: `CNC(=O)c1ccccc1Nc1cc(Nc2ccc(N3CCOCC3)cc2OC)ncc1C(F)(F)F`
Solution: F

Exercise: Exam item: decide whether the reported CellTox Green cytotoxicity fluorescence for CC(C)CC(NC(=O)C(Cc1ccccc1)CC(O)C(Cc1ccccc1)NC(=O)OC(C)(C)C)C(=O)NC(Cc1ccccc1)C(N)=O (stereo not given) is at least 1.
Solution: F

Exercise: Threshold query (CellTox Green cytotoxicity fluorescence >= 1) on `Nc1nc(F)nc2c1ncn2[C@@H]1O[C@H](CO)[C@@H](O)[C@@H]1O`
Solution: F

Exercise: # check: CellTox Green cytotoxicity fluorescence of CC[C@@]1(O)C(=O)OCc2c1cc1n(c2=O)Cc2cc3cc(O)ccc3nc2-1 [(S)-10-Hydroxycamptothecin] is greater than or equal to 1
Solution: T

Alright, here's another compound for you.
Exercise: Please check the record `Fc1ccc(CNc2ncnc3ccc(F)cc23)cc1` and state if its CellTox Green cytotoxicity fluorescence is at or above 1.
Solution: F

From: the supplement of paper PMC7595190
